# TGT: human H4 receptor (Homo sapiens)
# Construct: expressed in transfected cells
# Sequence (Q9H3N8 whole entry): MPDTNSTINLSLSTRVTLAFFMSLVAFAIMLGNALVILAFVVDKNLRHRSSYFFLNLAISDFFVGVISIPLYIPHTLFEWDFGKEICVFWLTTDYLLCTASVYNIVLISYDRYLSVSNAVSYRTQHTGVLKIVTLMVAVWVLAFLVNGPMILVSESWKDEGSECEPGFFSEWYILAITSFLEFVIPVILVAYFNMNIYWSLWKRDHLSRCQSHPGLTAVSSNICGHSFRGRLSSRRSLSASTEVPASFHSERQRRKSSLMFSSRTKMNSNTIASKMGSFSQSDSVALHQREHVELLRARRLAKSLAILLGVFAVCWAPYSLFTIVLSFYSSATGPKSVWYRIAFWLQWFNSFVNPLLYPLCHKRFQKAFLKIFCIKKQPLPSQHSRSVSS
# ASSAY COMMENT: [3H]Histamine binding on membranes of CHO cells stably expressing human H4 receptor
Recorded measurements of Ki or IC50 activity class, one per entry

{"COMPOUND": "CN1CCC(OC(c2cccc(-c3ccc(F)c(F)c3F)c2)c2nc3ccccc3s2)CC1 (centres unmarked)", "Ki or IC50 activity class": "< 300 nM"}
{"COMPOUND": "CN1CCC(OC(c2cccc(SCCCCCCO)c2)c2nc3ccccc3s2)CC1 (centres unmarked)", "Ki or IC50 activity class": "< 300 nM"}
{"COMPOUND": "CN1CCC(OC(c2cccc(OCCCCCN3CCN(C(=O)OC(C)(C)C)CC3)c2)c2nc3ccccc3[nH]2)CC1 (centres unmarked)", "Ki or IC50 activity class": "< 1000 nM"}
{"COMPOUND": "CN1CCC(OC(c2nc3ccccc3[nH]2)c2cc(OCC(F)(F)F)ccc2F)CC1 (centres unmarked)", "Ki or IC50 activity class": "< 30 nM"}
{"COMPOUND": "CN1CCC(OC(c2cccc(SCCNC(N)=O)c2)c2nc3ccccc3[nH]2)CC1 (centres unmarked)", "Ki or IC50 activity class": "< 1000 nM"}
{"COMPOUND": "CN1CCC(OC(c2nc3ccccc3[nH]2)c2cc(C#CCCCCN=C(c3ccccc3)c3ccccc3O)ccc2F)CC1 (centres unmarked)", "Ki or IC50 activity class": "< 30 nM"}
{"COMPOUND": "CN1CCC(OC(c2nc3ccccc3s2)c2cc(OC(F)(F)F)ccc2F)CC1 (centres unmarked)", "Ki or IC50 activity class": "< 30 nM"}
{"COMPOUND": "CC(C)Oc1cccc(C(NC2CCN(C)CC2)c2nc3ccccc3[nH]2)c1 (centres unmarked)", "Ki or IC50 activity class": "< 300 nM"}
{"COMPOUND": "CN1CCC(OC(c2cccc(CCCCN)c2)c2nc3ccccc3s2)CC1 (centres unmarked)", "Ki or IC50 activity class": "< 30 nM"}
{"COMPOUND": "CN1CCC(NC(c2cccc(-c3ccccc3)c2)c2nc3ccccc3s2)CC1 (centres unmarked)", "Ki or IC50 activity class": "< 30 nM"}
{"COMPOUND": "CN1CCC(OC(c2cccc(CCCN)c2)c2nc3ccccc3[nH]2)CC1 (centres unmarked)", "Ki or IC50 activity class": "< 300 nM"}
{"COMPOUND": "CN1CCC(OC(c2cccc(C3=CCN(C(=N)N)CC3)c2)c2nc3ccccc3[nH]2)CC1 (centres unmarked)", "Ki or IC50 activity class": "< 300 nM"}
{"COMPOUND": "CN1CCC(OC(c2cccc(OCCN3CCCCC3)c2)c2nc3ccccc3[nH]2)CC1 (centres unmarked)", "Ki or IC50 activity class": "< 1000 nM"}
{"COMPOUND": "CN1CCC(OC(c2cccc(SCCC3CCCCN3)c2)c2nc3ccccc3[nH]2)CC1 (centres unmarked)", "Ki or IC50 activity class": "< 300 nM"}
{"COMPOUND": "CN1CCC(NC(c2cc3ccccc3o2)c2nc3ccccc3s2)CC1 (centres unmarked)", "Ki or IC50 activity class": "< 1000 nM"}
{"COMPOUND": "CN1CCC(OC(c2nc3ccccc3[nH]2)c2c(F)cccc2F)CC1 (centres unmarked)", "Ki or IC50 activity class": "< 30 nM"}
{"COMPOUND": "CN1CCC(OC(c2cccc(C3CCN(C(=N)N)CC3)c2)c2nc3ccccc3[nH]2)CC1 (centres unmarked)", "Ki or IC50 activity class": "< 1000 nM"}
